Published pIC50 for BRD2 (Homo sapiens (Human), UniProt P25440), assembled from different documents, is shown next.
Recall that pIC50 is obtained by taking minus log10 of the concentration measured in molar.

Cc1cc(N2C(=O)c3nc(C)n(C(C)C)c3[C@H]2c2ccc(Cl)cc2)cn2c(C(F)F)nnc12	7.70
COc1ccc(-c2nc3c(n2C(C)C)C(c2ccc(Cl)cc2)N(c2cc(OC)c4nnc(C)n4c2)C3=O)cn1 (stereo not shown)	7.10

input: # lookup: pIC50 of Cc1nn(C2CC2)c2c1C(c1cccc(C(F)(F)F)c1)N(c1cc(C)c(=O)n(C)c1)C2=O (stereo not shown)
output: 6.18

input: For COC(=O)N1CC=C(c2nc3c(n2C(C)C)C(c2ccc(Cl)cc2)N(c2cc(C)c4nnc(C)n4c2)C3=O)CC1 (stereo not shown) then?
output: 7.30

input: For CNC(=O)n1cc(C)c2c1C(c1ccc(Cl)cc1)N(c1cc(C)c3nnc(C)n3c1)C2=O (stereo not shown) then?
output: 7.55

input: For "Cc1cc(N2C(=O)c3c(nc(C)n3C(C)C)[C@H]2c2ccc(Cl)cc2)cc2c1nnn2C" then?
output: 7.85

input: For Cc1cc(N2C(=O)c3cc(-c4ccccn4)n(C)c3C2c2ccc(Cl)cc2)cn(C)c1=O (stereo not shown) then?
output: 7.17

----------
Published IC50 for UniProtKB P25440, assembled from different documents, is shown next.
Decide using IC50 alone. Strictly below 50 nM: Y. Equal to or above 50 nM: N.

COc1ccc(-n2nc(C)c3c2C(c2ccc(Cl)cc2)N(c2cc(C)c(=O)n(C)c2)C3=O)cc1 (centres unmarked)	N

input: is_below(IC50, 50 nM) for "Cc1nn(C2CC2)c2c1[C@@H](c1ccc(Cl)cc1)N(c1cc(Cl)c(=O)n(C)c1)C2=O" ?
output: Y

input: For Cc1cc(N2C(=O)c3c(C(N)=O)cn(C)c3C2c2ccc(Cl)cc2)cn2c(C)nnc12 (centres unmarked) then?
output: N

input: For Cc1cc(N2C(=O)c3c(C4CC4)nn(CCO)c3C2c2ccc(Cl)cc2)cn(C)c1=O (centres unmarked) then?
output: Y

input: For CCOC(=O)N1CC(n2cc(C)c3c2C(c2ccc(Cl)cc2)N(c2cc(C)c4nnc(C)n4c2)C3=O)C1 (centres unmarked) then?
output: Y

input: For Cn1ccc2c1C(c1ccc(Cl)c(F)c1)N(c1cc(Cl)c(=O)n(C)c1)C2=O (centres unmarked) then?
output: N

input: For COc1cccc(C2c3c(ccn3C)C(=O)N2c2cc(Cl)c(=O)n(C)c2)c1 (centres unmarked) then?
output: N

input: For Cc1cc(N2C(=O)c3n[nH]cc3C2c2ccc(Cl)cc2)cn(C)c1=O (centres unmarked) then?
output: N

----------
Published pIC50 for UniProt P25440, assembled from different documents, is shown next.
pIC50: −log10 of the molar value.
Classification field: enter met for pIC50 values not below 7, not met for values below it.

Sample answers from the record:
Cc1nnn2c1-c1ccccc1N(c1ccc(Cl)cc1)C[C@@H]2C	met
COc1ccc(-c2nc3c(n2C(C)C)C(c2ccc(Cl)cc2)N(c2cc(C)c4onc(C)c4c2)C3=O)cn1 (stereo not shown)	met
Cc1cc(N2C(=O)c3nn(C)c(O)c3C2c2ccc(Cl)cc2)cn(C)c1=O (stereo not shown)	not met

input: Assess whether reported pIC50 for "Cc1nnn2c1-c1ccc(C(=O)N[C@@H](C)c3ccc(F)cc3)cc1N(c1ccccc1)CC2" sits at 7 or higher.
output: met

input: For "Cc1cc(N2C(=O)c3nc(C4CC4)n(C(C)C)c3[C@H]2c2ccc(Cl)cc2)cn2c(C)nnc12" then?
output: met

input: For Cc1[nH]nc2c1C(c1ccc(Cl)cc1)N(c1cc(C)c(=O)n(C)c1)C2=O (stereo not shown) then?
output: not met
